- TGT: UniProtKB P35408
- Sequence (P35408 whole entry): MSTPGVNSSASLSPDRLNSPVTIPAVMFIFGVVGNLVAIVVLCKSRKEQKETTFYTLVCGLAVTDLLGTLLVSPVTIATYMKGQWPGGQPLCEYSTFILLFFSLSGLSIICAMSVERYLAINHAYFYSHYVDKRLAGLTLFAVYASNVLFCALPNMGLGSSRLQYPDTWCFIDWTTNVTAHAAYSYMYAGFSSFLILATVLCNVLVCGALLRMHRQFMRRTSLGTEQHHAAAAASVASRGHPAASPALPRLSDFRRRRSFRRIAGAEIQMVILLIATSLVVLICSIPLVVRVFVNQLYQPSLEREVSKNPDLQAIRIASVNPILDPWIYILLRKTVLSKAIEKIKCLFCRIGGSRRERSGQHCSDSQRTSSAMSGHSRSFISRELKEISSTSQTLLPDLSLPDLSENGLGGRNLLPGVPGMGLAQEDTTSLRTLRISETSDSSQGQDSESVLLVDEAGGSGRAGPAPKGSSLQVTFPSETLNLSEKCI
- ASSAY EXPLANATION: hEP4 antagonism test (cAMP HTRF, PGE2-stimulated hEP4-expressing cells)
- Format: cell-based
- PROTOCOL CONDITIONS: hEP4-expressing cells, PGE2 at EC80 (0.4 nM), cAMP TR-FRET; read-out: hEP4 antagonization IC50
ENDPOINT NAME: IC50 (nM)

P: CCn1c2ccc(-c3nc4c(C)c(C(=O)O)ccc4n3CCOC)cc2c2cc(C)cc(F)c21 [Example 4]
Q: CCn1c2ccc(Br)cc2c2cc(-c3nc4c(C)c(C(=O)O)ccc4n3CCOC)ccc21 [Example 2]
R: CCn1c2ccc(-c3nc4c(C)c(C(=O)OC)ccc4n3CCOC)cc2c2cc(C)cc(Cl)c21 [Example 11]
Q: Sort the 3 compounds by IC50; largest first, smallest last. Note for the reader: the ranking is given by listing the labels in the order requested.
Result: R, Q, P
(R: 47 nM, Q: 11 nM, P: 2.4 nM)
